Provide the reported IC50, IFNγ release KG-1 cell assay, Rhesus Macaque IL-18 of each item.
tgt: recombinant Rhesus Macaque IL-18 (Rhesus Macaque, UniProt Q9BGI5 37-193)
assayMethodText: cell-based or functional assay
Give just the number in µM; leave the unit off.

# input // IC50, IFNγ release KG-1 cell assay, Rhesus Macaque IL-18 lookup, key: Antibody 2 IgG2 (antibody, V domains shown) VH: QVQLQQSGPRLVKPSQTLSLTCTVSGGSISSGGYYWSWIRQPAGKGLEWIGSIYYSGSTYYNPSLKSRVTISGDTPKNQFSLKLSSVTAADTAVYYCARTPAYDGDARADFFDVWGRGTLVTVSS VL: DIVMTQSPSTLSASVGDRVTITCRASQGISSWLAWYQQKPGRAPKVLIYKASTLESGVPSRFSGSGSGTDFTLTISSLQPEDFATYYCQDISFPPWTFGQGTKLEIK
# output 0.033

# input Antibody 10 IgG2 (antibody, V domains shown) VH: QVQLQQSGPRLVEPSQTLSLTCTVSGGSISSDGYYWSWIRQPAGKGLEWIGSIYYSGSTYYNPSLRSRVTISGDTPKNQFSLKLSSVTAADTAVYYCARTPAYFGQDRTDFFDVWGRGTLVTVSS VL: DIVMTQSPSTLSASVGDRVTITCRASQGISSWLAWYQQKPGGAPKVLIYKASTLESGVPSRFSGSGSGTDFTLTISSLQPEDFATYYCQQSHHPPWTFSQGTKLEIK , same question.
# output 0.000338

# input And what about the binder Antibody 4 IgG2 (antibody, V domains shown) VH: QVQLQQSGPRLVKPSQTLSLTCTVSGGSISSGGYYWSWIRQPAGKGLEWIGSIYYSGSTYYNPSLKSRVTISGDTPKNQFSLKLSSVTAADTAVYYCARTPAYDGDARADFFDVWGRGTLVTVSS VL: DIVMTQSPSTLSASVGDRVTITCRASQGISSWLAWYQQKPGRAPKVLIYKASTLESGVPSRFSGSGSGTDFTLTISSLQPEDFATYYCQQSHHPNWDFGQGTKLEIK ?
# output 0.035

# input Same read-out for Antibody 3 IgG2 (antibody, V domains shown) VH: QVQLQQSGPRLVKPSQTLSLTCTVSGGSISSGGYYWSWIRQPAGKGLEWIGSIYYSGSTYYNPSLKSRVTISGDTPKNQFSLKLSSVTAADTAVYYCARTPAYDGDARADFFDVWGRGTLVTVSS VL: DIVMTQSPSTLSASVGDRVTITCRASQGISSWLAWYQQKPGRAPKVLIYKASTLESGVPSRFSGSGSGTDFTLTISSLQPEDFATYYCQQSLYPPWTFGQGTKLEIK ?
# output 0.021

Numbers sourced from patent US20140004128A1.
